Biological target: human LAT1 (Homo sapiens, UniProt Q01650)
Construct: expressed in transfected cells
Sequence (Q01650 whole entry): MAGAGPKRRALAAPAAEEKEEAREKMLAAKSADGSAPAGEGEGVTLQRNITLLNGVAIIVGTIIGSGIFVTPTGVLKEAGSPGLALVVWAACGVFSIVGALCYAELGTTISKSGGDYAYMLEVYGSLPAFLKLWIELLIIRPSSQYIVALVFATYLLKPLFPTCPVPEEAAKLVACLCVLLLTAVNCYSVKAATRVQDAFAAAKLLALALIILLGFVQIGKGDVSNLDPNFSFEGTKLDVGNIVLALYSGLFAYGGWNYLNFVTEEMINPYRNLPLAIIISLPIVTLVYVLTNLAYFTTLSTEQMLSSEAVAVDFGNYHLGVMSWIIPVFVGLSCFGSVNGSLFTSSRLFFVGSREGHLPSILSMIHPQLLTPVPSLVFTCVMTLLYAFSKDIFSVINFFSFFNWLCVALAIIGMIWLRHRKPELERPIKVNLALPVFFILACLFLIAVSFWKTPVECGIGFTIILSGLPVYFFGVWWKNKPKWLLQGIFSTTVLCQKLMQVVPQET
Sequence (P08195 102-630 partner): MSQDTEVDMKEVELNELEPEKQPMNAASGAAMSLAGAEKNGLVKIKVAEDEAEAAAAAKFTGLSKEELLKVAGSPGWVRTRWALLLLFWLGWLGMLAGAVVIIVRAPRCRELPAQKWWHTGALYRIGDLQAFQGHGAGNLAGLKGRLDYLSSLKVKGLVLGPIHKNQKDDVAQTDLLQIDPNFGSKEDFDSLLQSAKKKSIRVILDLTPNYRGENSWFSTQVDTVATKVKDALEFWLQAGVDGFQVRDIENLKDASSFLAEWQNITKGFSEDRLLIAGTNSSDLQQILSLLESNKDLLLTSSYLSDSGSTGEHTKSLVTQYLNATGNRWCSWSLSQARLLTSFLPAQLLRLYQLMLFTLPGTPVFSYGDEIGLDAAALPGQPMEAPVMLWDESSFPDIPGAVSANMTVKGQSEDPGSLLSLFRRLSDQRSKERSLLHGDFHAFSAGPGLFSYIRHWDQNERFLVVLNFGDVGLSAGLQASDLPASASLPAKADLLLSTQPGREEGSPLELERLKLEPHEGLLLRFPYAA
Assay: Efflux of pre-loaded L-[14C]leucine from HEK293-hLAT1 cells induced by extracellular compounds
Assay type: cell-based
Details: LAT1, L-[14C]leucine efflux, 1 min; mean ± S.E.M., n = 3
quantityMeasured: Km (µM)

Use these answered entries as a reference point.
{"molecule": "N[C@]1(C(=O)O)CCc2ccccc2C1", "Km / µM": 27.3}
{"molecule": "N[C@@H](Cc1ccccc1)C(=O)O", "Km / µM": 8.92}

I: N[C@@H](Cc1ccccc1I)C(=O)O
II: C[C@](N)(Cc1ccccc1)C(=O)O [α-methyl-Phe, α-Methyl-L-phenylalanine, reference compound]
Lab note: record which item had the higher Km, I or II . Indicate your choice by writing its label.
II
(II: 67.9 µM, I: 2.79 µM)

----------
Molecular target: human LAT2 (Homo sapiens, UniProt Q9UHI5)
Construct: expressed in transfected cells
Sequence (Q9UHI5 whole entry): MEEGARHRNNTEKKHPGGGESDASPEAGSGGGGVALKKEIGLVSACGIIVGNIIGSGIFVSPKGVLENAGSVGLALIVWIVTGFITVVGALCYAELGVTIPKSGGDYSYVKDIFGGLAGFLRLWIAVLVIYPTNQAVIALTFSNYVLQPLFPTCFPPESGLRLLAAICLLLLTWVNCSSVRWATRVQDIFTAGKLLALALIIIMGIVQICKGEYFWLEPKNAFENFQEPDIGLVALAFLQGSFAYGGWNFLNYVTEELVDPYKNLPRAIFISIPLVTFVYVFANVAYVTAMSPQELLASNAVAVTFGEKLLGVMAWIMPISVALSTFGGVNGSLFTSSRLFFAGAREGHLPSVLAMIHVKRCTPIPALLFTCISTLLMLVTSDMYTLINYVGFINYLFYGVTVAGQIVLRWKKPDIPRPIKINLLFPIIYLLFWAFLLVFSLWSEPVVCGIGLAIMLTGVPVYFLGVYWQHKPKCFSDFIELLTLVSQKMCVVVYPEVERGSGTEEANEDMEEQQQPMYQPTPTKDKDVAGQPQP
Sequence (P08195 102-630 partner): as the sequence (P08195 102-630 partner) above
Test: Inhibition of L-[14C]alanine uptake in HEK293-hLAT2 cells
Format: cell-based
Settings: as quoted in the discussion; read-out: Ki value for LAT2
Procedure: In this study, we used the HEK293 cells stably expressing human LAT1 or human LAT2, which form a heterodimeric complex with endogenous 4F2hc (CD98hc), required for plasma membrane localization. […] The inhibition experiments were performed as described previously. […] Following a 2-day culture period, the uptake of 1 μM L-[^14C]leucine or L-[^14C]alanine was measured for 1 min in the absence or presence of non-radiolabeled test compounds at concentrations of 10, 30, and 100 μM. […]
quantityMeasured: Ki

For `N[C@]1(C(=O)O)CCc2ccccc2C1` , what is its reported Ki?
~3.8 mM

----------
Molecular target: human LAT1 (Homo sapiens)
Construct: expressed in transfected cells
Assay: Inhibition of L-[14C]leucine uptake in HEK293-hLAT1 cells
Assay type: cell-based
Details: L-[14C]leucine uptake, HEK293-hLAT1; mean ± S.E.M., n = 3–4; read-out: Ki (μM) LAT1
quantityMeasured: Ki (µM)

{"compound": "N[C@]1(C(=O)O)CCc2ccccc2C1 [bicyclic-Phe]", "unitsText": "µM", "numericValue": 78.2}

I: N[C@H](C(=O)O)c1ccccc1 [Phg, L-phenylglycine]
II: N[C@@H](Cc1ccccc1I)C(=O)O [2-I-Phe, 2-iodo-L-phenylalanine]
III: C[C@](N)(Cc1ccccc1)C(=O)O [α-methyl-Phe, α-Methyl-L-phenylalanine, reference compound]
IV: N[C@@H](Cc1ccccc1)C(=O)O [Phe, phenylalanine]
Exam item: list the entries in increasing order of Ki. Form entry: ranked labels (order as requested).
II, IV, I, III
(II: 9.56 µM, IV: 43.5 µM, I: 96.8 µM, III: 157 µM)

----------
Biological target: human LAT2 (Homo sapiens)
Construct: expressed in transfected cells
Assay: Efflux of pre-loaded L-[14C]alanine from HEK293-hLAT2 cells induced by extracellular compounds
Format: cell-based
Settings: LAT2, L-[14C]alanine efflux, 1 min; mean ± S.E.M., n = 3
quantityMeasured: Vmax of efflux (% radioactivity/min)

{"compound": "N[C@@H](Cc1ccccc1I)C(=O)O", "quantityMeasured": "Vmax of efflux (% radioactivity/min)", "numericValue": 39.65}

1: C[C@](N)(Cc1ccccc1)C(=O)O [α-methyl-Phe, α-Methyl-L-phenylalanine, reference compound]
2: N[C@@H](Cc1ccccc1)C(=O)O
Consider entries 1 and 2 . Which has the numerically lower Vmax of efflux (% radioactivity/min)? Indicate your choice by writing its label.
1
